Data origin: patent US6696467B2

Documented IC50 across a set of compounds
- measurement_target: recombinant mouse NPY5-receptor (mNPY5) (Mus musculus)
- Construct: The full-length cDNA encoding the mouse NPY5 (mNPY5) receptor was amplified from mouse brain cDNA; membranes used
- Sequence (O70342 whole entry): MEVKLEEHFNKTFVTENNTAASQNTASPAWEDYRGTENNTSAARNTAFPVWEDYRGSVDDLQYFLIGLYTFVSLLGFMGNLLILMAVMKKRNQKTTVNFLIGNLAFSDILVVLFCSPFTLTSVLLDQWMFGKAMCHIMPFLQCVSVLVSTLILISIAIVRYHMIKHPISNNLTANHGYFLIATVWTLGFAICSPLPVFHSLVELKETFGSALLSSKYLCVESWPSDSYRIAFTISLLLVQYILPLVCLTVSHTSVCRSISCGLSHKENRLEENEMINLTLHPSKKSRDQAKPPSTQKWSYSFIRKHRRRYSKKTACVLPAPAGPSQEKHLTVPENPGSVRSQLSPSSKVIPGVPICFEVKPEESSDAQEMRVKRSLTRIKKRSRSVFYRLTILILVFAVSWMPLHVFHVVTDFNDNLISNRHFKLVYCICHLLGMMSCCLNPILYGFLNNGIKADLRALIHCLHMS
- experiment_summary: Radioligand competition binding
- experimental_setup: displacement of 100 pM [125I]labelled peptide YY (PYY), membranes of HEK293 cells expressing mNPY5, 1 h at 22° C.
Quick reminder: number only, in nM, skip the unit.

• Cc1cc(N2CCCC2)c2ccc(NCC(C)C)cc2n1 = 0.7

Next:
Reported IC50, compound Cc1cc(N2CCCC2)c2ccc(NC(=O)c3ccco3)cc2n1 : ____
0.3
